# TESTED ON: T1, UBXD1-PUB (150–264) R207E (UniProt Q9BZV1 150-264, R207E)
# T1 construct: UBXD1 PUB domain construct, residues 150-264, point mutant; source: E. coli Rosetta2, purified (Ni-NTA, thrombin cleavage of the tag, SEC); not shown: His6, N-terminal, cleaved
# T1 sequence (looked up): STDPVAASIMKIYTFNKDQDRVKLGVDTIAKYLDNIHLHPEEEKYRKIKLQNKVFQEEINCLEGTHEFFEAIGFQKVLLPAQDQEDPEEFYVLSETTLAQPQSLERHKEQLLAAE
# ASSAY INFO: fluorescence polarisation; fluorescence anisotropy; PUB constructs titrated to 100 nM 5,6-FAM labeled p97-C10 peptide; 50 mM NaKPi pH 6.5, 25 °C; triplicate; one-site quadratic fit
# ASSAY CONTEXT: both partners purified
No end group written: not given here.
RECORDED ENDPOINT: Kd (µM)
Give your result in µM as a bare value.

stdin: State its Kd for this binder: TEDNDDDLYG (also: 5,6-FAM label, position not given here, source: synthetic peptide, bought: Caslo ApS (Denmark)) [5,6-FAM-labeled p97-C10 peptide]
stdout: 88
